Record form. Attribute: log10 of IC50. Fill in for each entry.
Test system: HCV replicon 1AY93H
Experiment: microbe, parasite or virus in culture
Format: cell-based, Hepatitis C virus (HCV)
Settings: read-out: 1A Y93H IC50; HCV replicon 1A Y93H; Replicon Assay A
For clarity, the numbers are log10 values of IC50 expressed in nM.

Query string: Field request: log10 of IC50 | item: COC(=O)N[C@H](C(=O)N1CCC[C@H]1c1ncc(-c2cc(F)c3c(c2)OC(c2cc4c(s2)CCCO4)n2c-3cc3cc(-c4cnc([C@@H]5CCCN5C(=O)[C@@H](NC(=O)OC)C5CCOC(C)(C)C5)[nH]4)ccc32)[nH]1)C(C)C (single isomer, unassigned) [Compound 411]
Result string: -0.11

Query string: Can you check COC(=O)N[C@H](C(=O)N1CCC[C@H]1c1ncc(-c2ccc3c(c2)OC(c2cc4ccccc4s2)n2c-3cc3cc(-c4cnc([C@@H]5C[C@@H](F)CN5C(=O)[C@@H](NC(=O)OC)C5CCOCC5)[nH]4)ccc32)[nH]1)C1CCOCC1 (single isomer, unassigned) [Compound 813] next?
Result string: -1.42

Query string: Can you check COC(=O)N[C@H](C(=O)N1CCC[C@H]1c1ncc(-c2ccc3c(c2)OC(c2ccc(C4CC4)s2)n2c-3c(F)c3cc(-c4cnc([C@@H]5CCCN5C(=O)[C@@H](NC(=O)OC)C(C)C)[nH]4)ccc32)[nH]1)C(C)C (single isomer, unassigned) [Compound 605] next?
Result string: 0.10

Query string: Can you check COC(=O)N[C@H](C(=O)N1CCC[C@H]1c1ncc(-c2cc(F)c3c(c2)OC(c2cc4ccccc4s2)n2c-3cc3cc(-c4cnc([C@@H]5C[C@H]6C[C@H]6N5C(=O)[C@@H](NC(=O)OC)C(C)C)[nH]4)ccc32)[nH]1)C(C)C (single isomer, unassigned) [Compound 616] next?
Result string: -1.69

Query string: Can you check COC(=O)N[C@H](C(=O)N1CCC[C@H]1c1ncc(-c2cc(F)c3c(c2)OC(c2scc4c2OCCO4)n2c-3cc3cc(-c4cnc([C@@H]5CCCN5C(=O)[C@@H](NC(=O)OC)C(C)C)[nH]4)ccc32)[nH]1)C(C)C (single isomer, unassigned) [Compound 524] next?
Result string: 1.16

Query string: Can you check COC(=O)N[C@H](C(=O)N1CCC[C@H]1c1ncc(-c2ccc3c(c2)OC(c2cc4sccc4s2)n2c-3cc3cc(-c4c[nH]c([C@@H]5C[C@H]6C[C@H]6N5C(=O)[C@@H](NC(=O)OC)C(C)C)n4)ccc32)[nH]1)C(C)C (single isomer, unassigned) [Compound 716] next?
Result string: 0.11

Query string: Can you check COC(=O)N[C@H](C(=O)N1C2CC2C[C@H]1c1ncc(-c2cc(F)c3c(c2)OC(c2ccc(C4CC4)s2)n2c-3cc3cc(-c4cnc([C@@H]5CCCN5C(=O)[C@@H](NC(=O)OC)C5C[C@@H](C)O[C@@H](C)C5)[nH]4)ccc32)[nH]1)C(C)C (single isomer, unassigned) [Compound 555] next?
Result string: -0.98

Where these numbers come from: patent US20160257697A1
